The reported numbers originate from patent US20220411380A1.

- experimentalProtocol: DVS (dynamic vapor sorption) characterization
- Type: physicochemical
- testSettings: 25° C., 20.0% RH to 80.0% RH
measureName: DVS weight change
Enter the number, and then the unit.

## Input Provide only the value of recorded DVS weight change for Cl.NC(=O)C[C@H](c1ccc(S(=O)(=O)CC2CC2)cc1)c1nc2cc(-c3ccccc3OC(F)F)c(Cl)cc2[nH]1 [Crystalline form α of hydrochloride of compound of formula I]
## Output 0.549%

## Input Read off the recorded DVS weight change for Cl.NC(=O)C[C@H](c1ccc(S(=O)(=O)CC2CC2)cc1)c1nc2cc(-c3ccccc3OC(F)F)c(Cl)cc2[nH]1 [Crystalline form β of hydrochloride of compound of formula I]
## Output 1.235%

## Input Tell me DVS weight change reported for NC(=O)C[C@H](c1ccc(S(=O)(=O)CC2CC2)cc1)c1nc2cc(-c3ccccc3OC(F)F)c(Cl)cc2[nH]1.O=C(O)/C=C\C(=O)O
## Output 1.731%

## Input Using the record for Br.NC(=O)C[C@H](c1ccc(S(=O)(=O)CC2CC2)cc1)c1nc2cc(-c3ccccc3OC(F)F)c(Cl)cc2[nH]1 , state its measured DVS weight change.
## Output 0.636%
